Value source: ChEMBL document CHEMBL2163209

- assayNotes: Solubility of the compound in water with 2 % DMSO
- Type: physicochemical
measuredMetric: solubility (µM)

{"itemSmiles": "CCOc1cc2c(cc1-c1cccnc1)CCC(=O)N2C", "solubility (µM)": 137}
{"itemSmiles": "COc1cc2c(cc1-c1cccnc1)CCC(=O)N2C", "solubility (µM)": 146}

[I] O=C1CCc2cc(-c3cccnc3)cc(Br)c2N1
[II] CN1C(=O)CCc2cc(-c3cccnc3)c(OC3CCCC3)cc21
Q. Between I and II , which one has the lower reported solubility value? Kindly state the label of the option you pick.
A. II

====

- studyTarget: UniProt P19099
- Sequence (P19099 whole entry): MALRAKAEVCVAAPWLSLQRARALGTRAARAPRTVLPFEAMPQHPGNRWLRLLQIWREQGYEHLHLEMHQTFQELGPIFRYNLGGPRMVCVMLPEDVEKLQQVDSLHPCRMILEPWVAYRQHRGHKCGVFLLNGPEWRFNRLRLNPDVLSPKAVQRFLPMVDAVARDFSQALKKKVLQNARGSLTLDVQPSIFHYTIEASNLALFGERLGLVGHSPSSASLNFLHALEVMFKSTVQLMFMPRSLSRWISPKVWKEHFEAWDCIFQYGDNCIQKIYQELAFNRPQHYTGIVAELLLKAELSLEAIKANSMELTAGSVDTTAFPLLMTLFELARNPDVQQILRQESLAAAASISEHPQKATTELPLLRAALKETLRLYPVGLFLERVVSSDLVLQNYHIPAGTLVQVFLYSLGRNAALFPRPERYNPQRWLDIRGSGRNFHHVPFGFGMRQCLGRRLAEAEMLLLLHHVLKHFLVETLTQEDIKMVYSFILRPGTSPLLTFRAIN
- assayNotes: Inhibition of human CYP11B2 expressed in V79MZh cells using [14C]-11-deoxycorticosterone as substrate by HPTLC/phosphoimaging method
pIC50: −log10 of the molar value.
measuredMetric: pIC50

{"itemSmiles": "O=C1CCc2cc(-c3cccnc3)cc(-c3ccsc3)c2N1", "obsValue": 6.68}
{"itemSmiles": "CN1C(=O)CCc2cc(-c3cccnc3)c(OC3CCCC3)cc21", "obsValue": 6.12}
{"itemSmiles": "O=C1CCc2cc(-c3cccnc3)c(OCc3ccccc3)cc2N1", "obsValue": 7.66}
{"itemSmiles": "O=C1CCc2cc(-c3cccnc3)cc(-c3ccccc3)c2N1", "obsValue": 5.93}
{"itemSmiles": "O=C1CCc2cc(-c3cccnc3)c(O)cc2N1", "obsValue": 6.51}
{"itemSmiles": "CCOc1cc2c(cc1-c1cccnc1)CCC(=O)N2C", "obsValue": 7.72}
{"itemSmiles": "COc1cc2c(cc1-c1cccnc1)CCC(=O)N2", "obsValue": 6.57}
{"itemSmiles": "CN1C(=O)CCc2cc(-c3cccnc3)c(OCc3ccccc3)cc21", "obsValue": 6.75}

[1] O=C1CCc2cc(-c3cccnc3)cc(-c3cccnc3)c2N1
[2] COc1cc2c(cc1-c1cccnc1)CCC(=O)N2C
Q. Task for the reader: decide whether 1 or 2 has the larger pIC50. Kindly state the label of the option you pick.
A. 2

[1] O=C1CCc2cc(-c3cccnc3)cc(Br)c2N1
[2] O=C1CCc2cc(-c3cccnc3)c(OC3CCCC3)cc2N1
Q. Between 1 and 2 , which one has the lower reported pIC50 value? Kindly state the label of the option you pick.
A. 2
(2: 5.77, 1: 7.92)
